- Test protocol: Pharmacokinetics assay in rat
- Assay type: in vivo, SD rats
- Test context: male, SD, plasma, 1 mg/kg, IV 1 mpk, read-out: C0 or Cmax
Reported property: Cmax (nM)
Give bare numbers, in nM.

Give the reported Cmax for this compound. "CCCCOc1nc(N)c2[nH]cc(Cc3cnc(CN4CCCC4)s3)c2n1"
673

----------
- Study system: Toll-like receptor 8 (HEK-blue hTLR8 cell) (Homo sapiens)
- Sequence (Q9NR97 27-1041): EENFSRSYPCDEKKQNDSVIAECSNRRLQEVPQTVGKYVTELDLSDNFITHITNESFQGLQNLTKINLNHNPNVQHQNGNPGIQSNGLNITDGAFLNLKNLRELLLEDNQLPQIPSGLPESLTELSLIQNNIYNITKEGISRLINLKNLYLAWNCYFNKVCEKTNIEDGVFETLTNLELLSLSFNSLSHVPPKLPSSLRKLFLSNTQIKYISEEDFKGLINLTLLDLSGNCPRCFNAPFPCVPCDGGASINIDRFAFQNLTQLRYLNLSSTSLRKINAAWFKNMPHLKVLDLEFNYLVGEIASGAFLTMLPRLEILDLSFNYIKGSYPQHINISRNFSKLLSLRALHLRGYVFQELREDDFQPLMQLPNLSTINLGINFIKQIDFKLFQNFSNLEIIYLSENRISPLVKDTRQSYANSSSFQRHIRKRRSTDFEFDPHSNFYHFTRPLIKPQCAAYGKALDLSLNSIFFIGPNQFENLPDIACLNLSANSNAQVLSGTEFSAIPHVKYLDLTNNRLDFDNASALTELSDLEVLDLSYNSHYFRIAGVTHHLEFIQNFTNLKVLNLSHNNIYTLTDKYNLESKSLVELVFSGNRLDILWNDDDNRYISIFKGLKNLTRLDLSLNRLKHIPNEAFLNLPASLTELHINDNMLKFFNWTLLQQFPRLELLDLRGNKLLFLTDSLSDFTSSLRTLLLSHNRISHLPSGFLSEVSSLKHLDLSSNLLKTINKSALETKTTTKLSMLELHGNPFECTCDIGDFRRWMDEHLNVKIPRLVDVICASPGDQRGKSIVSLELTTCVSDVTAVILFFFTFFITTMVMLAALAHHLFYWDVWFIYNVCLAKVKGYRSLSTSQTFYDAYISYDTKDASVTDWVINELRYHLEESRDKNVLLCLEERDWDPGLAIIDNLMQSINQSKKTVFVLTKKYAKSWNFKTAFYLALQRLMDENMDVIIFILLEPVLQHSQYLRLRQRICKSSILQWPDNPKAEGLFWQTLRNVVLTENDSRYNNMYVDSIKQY
- Test protocol: Toll-like receptor 8 in vitro receptor binding activity (HEK-blue hTLR8 cell, Quanti-Blue alkaline phosphatase reporter)
- Test context: 24 h incubation, read-out: TLR8 EC50
Reported property: EC50 (µM)
One number for each entry, in µM.

Give the reported EC50 for this compound. CCCCOc1nc(N)c2[nH]cc(Cc3cnc(CN4CCCC4)s3)c2n1 [Example 1]
29.3
